Measurement Notes: self-splicing fitness, log relative to wild type (ln ratio); higher = more splicing; Tetrahymena group I intron in knt gene, E. coli kanamycin selection, DiMSum; sequences stand for … in CUCUCU…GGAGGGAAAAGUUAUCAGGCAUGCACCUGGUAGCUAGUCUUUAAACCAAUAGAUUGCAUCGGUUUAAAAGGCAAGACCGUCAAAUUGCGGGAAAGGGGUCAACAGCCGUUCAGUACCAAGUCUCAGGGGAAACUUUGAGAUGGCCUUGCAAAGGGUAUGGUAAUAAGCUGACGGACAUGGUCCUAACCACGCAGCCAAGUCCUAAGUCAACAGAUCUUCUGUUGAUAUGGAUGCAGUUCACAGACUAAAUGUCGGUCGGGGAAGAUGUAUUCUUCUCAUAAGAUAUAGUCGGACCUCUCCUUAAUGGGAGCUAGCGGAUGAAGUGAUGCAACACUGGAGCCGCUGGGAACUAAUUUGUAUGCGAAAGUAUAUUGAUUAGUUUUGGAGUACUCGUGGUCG;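 also: selection with 25 µg/mL kanamycin versus none on LB agar overnight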
Measurement Setup: 30 °C
Dear colleague, classification is by self-splicing fitness (ln), with ranges listed here: 1 = under -3, 2 = from -3 up to -1, 3 = -1 and over

Query: Where would CAUAAGCAAUAUUACGAGAU land among the classes by reported self-splicing fitness (ln)?
Response: 1

Query: Where would UAGUAGCAAUAUUACGAUGC land among the classes by reported self-splicing fitness (ln)?
Response: 1

Query: Where would AAGCAGCAAUAUUACGUAGU land among the classes by reported self-splicing fitness (ln)?
Response: 2

Query: Where would GGCAAGCAAUAUUACGCGUC land among the classes by reported self-splicing fitness (ln)?
Response: 1

Query: Where would CAUGAGCAAUAUUACGACCG land among the classes by reported self-splicing fitness (ln)?
Response: 3

Query: Where would GAAUAGCAAUAUUACGCGCG land among the classes by reported self-splicing fitness (ln)?
Response: 3

Query: Where would AGAAAGCAAUAUUACGUCUA land among the classes by reported self-splicing fitness (ln)?
Response: 3

Query: Where would ACUGAGCAAUAUUACGUAAC land among the classes by reported self-splicing fitness (ln)?
Response: 1

Query: Where would CGAAAGCAAUAUUACGAAGG land among the classes by reported self-splicing fitness (ln)?
Response: 2

Query: Where would GAAAAGCAAUAUUACGAGUG land among the classes by reported self-splicing fitness (ln)?
Response: 2

Query: Where would AUUCAGCAAUAUUACGCAAG land among the classes by reported self-splicing fitness (ln)?
Response: 2

Query: Where would GGCAAGCAAUAUUACGAUGA land among the classes by reported self-splicing fitness (ln)?
Response: 2

Query: Where would CGUGAGCAAUAUUACGGCCG land among the classes by reported self-splicing fitness (ln)?
Response: 2

Query: Where would GCGAAGCAAUAUUACGUUUC land among the classes by reported self-splicing fitness (ln)?
Response: 2

Query: Where would GACAAGCAAUAUUACGUCAG land among the classes by reported self-splicing fitness (ln)?
Response: 1

Query: Where would ACUGAGCAAUAUUACGGAGA land among the classes by reported self-splicing fitness (ln)?
Response: 1

Query: Where would CUCCAGCAAUAUUACGGUCA land among the classes by reported self-splicing fitness (ln)?
Response: 2

Query: Where would CAGUAGCAAUAUUACGGCAG land among the classes by reported self-splicing fitness (ln)?
Response: 3

Query: Where would AUGUAGCAAUAUUACGGGUU land among the classes by reported self-splicing fitness (ln)?
Response: 2

Query: Where would UCACAGCAAUAUUACGUAGC land among the classes by reported self-splicing fitness (ln)?
Response: 2

Query: Where would UGUUAGCAAUAUUACGCCCU land among the classes by reported self-splicing fitness (ln)?
Response: 3

Query: Where would UCUGAGCAAUAUUACGUCGC land among the classes by reported self-splicing fitness (ln)?
Response: 1

Query: Where would UUGCAGCAAUAUUACGUGAU land among the classes by reported self-splicing fitness (ln)?
Response: 1

Query: Where would UCUGAGCAAUAUUACGAGCG land among the classes by reported self-splicing fitness (ln)?
Response: 2

Query: Where would UUUUAGCAAUAUUACGGCCG land among the classes by reported self-splicing fitness (ln)?
Response: 3

Query: Where would AGAGAGCAAUAUUACGGUCC land among the classes by reported self-splicing fitness (ln)?
Response: 2

Query: Where would UGCUAGCAAUAUUACGACGU land among the classes by reported self-splicing fitness (ln)?
Response: 2

Query: Where would UGGGAGCAAUAUUACGCUGG land among the classes by reported self-splicing fitness (ln)?
Response: 2

Query: Where would UGGAAGCAAUAUUACGCACU land among the classes by reported self-splicing fitness (ln)?
Response: 3

Query: Where would CAUAAGCAAUAUUACGAAUU land among the classes by reported self-splicing fitness (ln)?
Response: 1

Query: Where would GACUAGCAAUAUUACGGUGA land among the classes by reported self-splicing fitness (ln)?
Response: 2

Query: Where would GUCAAGCAAUAUUACGGGGC land among the classes by reported self-splicing fitness (ln)?
Response: 1

Query: Where would GCUUAGCAAUAUUACGAACC land among the classes by reported self-splicing fitness (ln)?
Response: 3

Query: Where would CGGGAGCAAUAUUACGAGUG land among the classes by reported self-splicing fitness (ln)?
Response: 1

Query: Where would UUGCAGCAAUAUUACGUGGA land among the classes by reported self-splicing fitness (ln)?
Response: 2

Query: Where would UAUAAGCAAUAUUACGGUGC land among the classes by reported self-splicing fitness (ln)?
Response: 2

Query: Where would CAGUAGCAAUAUUACGGUAA land among the classes by reported self-splicing fitness (ln)?
Response: 1

Query: Where would GUCUAGCAAUAUUACGCAUG land among the classes by reported self-splicing fitness (ln)?
Response: 3

Query: Where would AUUGAGCAAUAUUACGCGCU land among the classes by reported self-splicing fitness (ln)?
Response: 2

Query: Where would GUUUAGCAAUAUUACGCAGG land among the classes by reported self-splicing fitness (ln)?
Response: 2

Query: Where would AAAGAGCAAUAUUACGGCUC land among the classes by reported self-splicing fitness (ln)?
Response: 2

Query: Where would AAUCAGCAAUAUUACGGAGA land among the classes by reported self-splicing fitness (ln)?
Response: 3

Query: Where would GUACAGCAAUAUUACGGUGA land among the classes by reported self-splicing fitness (ln)?
Response: 2

Query: Where would GAGUAGCAAUAUUACGUACG land among the classes by reported self-splicing fitness (ln)?
Response: 2

Query: Where would CUAAAGCAAUAUUACGAUAA land among the classes by reported self-splicing fitness (ln)?
Response: 2

Query: Where would GCGAAGCAAUAUUACGACUG land among the classes by reported self-splicing fitness (ln)?
Response: 2

Query: Where would CCGAAGCAAUAUUACGGGAG land among the classes by reported self-splicing fitness (ln)?
Response: 2

Query: Where would CCUAAGCAAUAUUACGGGAU land among the classes by reported self-splicing fitness (ln)?
Response: 1

Query: Where would UAUAAGCAAUAUUACGAUUG land among the classes by reported self-splicing fitness (ln)?
Response: 2

Query: Where would GGUCAGCAAUAUUACGAAGC land among the classes by reported self-splicing fitness (ln)?
Response: 3

Query: Where would AAAGAGCAAUAUUACGCUGC land among the classes by reported self-splicing fitness (ln)?
Response: 1

Query: Where would CUCCAGCAAUAUUACGGCCG land among the classes by reported self-splicing fitness (ln)?
Response: 2

Query: Where would AACUAGCAAUAUUACGCCUA land among the classes by reported self-splicing fitness (ln)?
Response: 3

Query: Where would AGCGAGCAAUAUUACGGUUU land among the classes by reported self-splicing fitness (ln)?
Response: 2

Query: Where would CGUAAGCAAUAUUACGUGAG land among the classes by reported self-splicing fitness (ln)?
Response: 2

Query: Where would UAGAAGCAAUAUUACGUGCC land among the classes by reported self-splicing fitness (ln)?
Response: 2

Query: Where would ACAAAGCAAUAUUACGGGAC land among the classes by reported self-splicing fitness (ln)?
Response: 1

Query: Where would UCCGAGCAAUAUUACGGGUA land among the classes by reported self-splicing fitness (ln)?
Response: 2

Query: Where would UCAAAGCAAUAUUACGGACU land among the classes by reported self-splicing fitness (ln)?
Response: 1

Query: Where would ACUCAGCAAUAUUACGUCGU land among the classes by reported self-splicing fitness (ln)?
Response: 2

Query: Where would UGCGAGCAAUAUUACGGUUA land among the classes by reported self-splicing fitness (ln)?
Response: 3

Query: Where would CACUAGCAAUAUUACGUCUA land among the classes by reported self-splicing fitness (ln)?
Response: 2
